# System: PC-3
# Test: Cytotoxicity against human PC-3 cells assessed as reduction in cell viability after 96 hrs by MTT assay
# Format: functional, cell-based
# Condition Set: PC-3, 96 h
Measured Attribute: IC50 (µM)

[
  {
    "Molecule Smiles": "CC1(C)[C@@H](O)CC[C@]2(C)[C@H]3C(=O)C=C4[C@@H]5C[C@@](C)(C(=O)NCCCCC(=O)NO)CC[C@]5(C)CC[C@@]4(C)[C@]3(C)CC[C@@H]12",
    "System": "PC-3",
    "Recorded Result": 18.5
  },
  {
    "Molecule Smiles": "COC(=O)[C@@]1(C)CC[C@]2(C)CC[C@]3(C)C(=CC(=O)[C@@H]4[C@@]5(C)C=C(C#N)C(=O)C(C)(C)[C@@H]5CC[C@]43C)[C@@H]2C1",
    "System": "PC-3",
    "Recorded Result": 1.68
  },
  {
    "Molecule Smiles": "CC1(C)[C@@H](O)CC[C@]2(C)[C@H]3C(=O)C=C4[C@@H]5C[C@@](C)(C(=O)OCCOc6ccc(NC(=O)CCCC(=O)NO)cc6)CC[C@]5(C)CC[C@@]4(C)[C@]3(C)CC[C@@H]12",
    "System": "PC-3",
    "Recorded Result": 6.94
  },
  {
    "Molecule Smiles": "CC1(C)[C@@H](O)CC[C@]2(C)[C@H]3C(=O)C=C4[C@@H]5C[C@@](C)(C(=O)OCCCOc6ccc(NC(=O)CCCCC(=O)NO)cc6)CC[C@]5(C)CC[C@@]4(C)[C@]3(C)CC[C@@H]12",
    "System": "PC-3",
    "Recorded Result": 3.95
  },
  {
    "Molecule Smiles": "CC1(C)[C@@H](O)CC[C@]2(C)[C@H]3C(=O)C=C4[C@@H]5C[C@@](C)(C(=O)NCCCCCC(=O)NO)CC[C@]5(C)CC[C@@]4(C)[C@]3(C)CC[C@@H]12",
    "System": "PC-3",
    "Recorded Result": 13.6
  }
]

###

# System: PC-3
# Test: Cytotoxicity against human PC-3 cells assessed as reduction in cell viability after 96 hrs by MTT assay
# Assay type: functional, cell-based
# Condition Set: PC-3, 96 h
Rule for this label: Criterion met means IC50 is less than 4 µM; Criterion not met means IC50 is at least 4 µM.

[
  {
    "Molecule Smiles": "CC1(C)C(=O)C(C#N)=C[C@]2(C)[C@H]3C(=O)C=C4[C@@H]5C[C@@](C)(C(=O)N6CCN(c7ccc(NC(=O)CCCCCCC(=O)NO)cc7)CC6)CC[C@]5(C)CC[C@@]4(C)[C@]3(C)CC[C@@H]12",
    "Class Label": "Criterion met"
  },
  {
    "Molecule Smiles": "CC1(C)[C@@H](O)CC[C@]2(C)[C@H]3C(=O)C=C4[C@@H]5C[C@@](C)(C(=O)N6CCN(c7ccc(NC(=O)CCCC(=O)NO)cc7)CC6)CC[C@]5(C)CC[C@@]4(C)[C@]3(C)CC[C@@H]12",
    "Class Label": "Criterion not met"
  },
  {
    "Molecule Smiles": "CC1(C)[C@@H](O)CC[C@]2(C)[C@H]3C(=O)C=C4[C@@H]5C[C@@](C)(C(=O)OCCOc6ccc(NC(=O)CCCCCCC(=O)NO)cc6)CC[C@]5(C)CC[C@@]4(C)[C@]3(C)CC[C@@H]12",
    "Class Label": "Criterion not met"
  },
  {
    "Molecule Smiles": "CC1(C)[C@@H](O)CC[C@]2(C)[C@H]3C(=O)C=C4[C@@H]5C[C@@](C)(C(=O)O)CC[C@]5(C)CC[C@@]4(C)[C@]3(C)CC[C@@H]12",
    "Class Label": "Criterion not met"
  },
  {
    "Molecule Smiles": "CC1(C)[C@@H](O)CC[C@]2(C)[C@H]3C(=O)C=C4[C@@H]5C[C@@](C)(C(=O)OCCCOc6ccc(NC(=O)CCCCCC(=O)NO)cc6)CC[C@]5(C)CC[C@@]4(C)[C@]3(C)CC[C@@H]12",
    "Class Label": "Criterion not met"
  }
]
